Biological target: UniProt Q08345
Sequence (Q08345 19-913): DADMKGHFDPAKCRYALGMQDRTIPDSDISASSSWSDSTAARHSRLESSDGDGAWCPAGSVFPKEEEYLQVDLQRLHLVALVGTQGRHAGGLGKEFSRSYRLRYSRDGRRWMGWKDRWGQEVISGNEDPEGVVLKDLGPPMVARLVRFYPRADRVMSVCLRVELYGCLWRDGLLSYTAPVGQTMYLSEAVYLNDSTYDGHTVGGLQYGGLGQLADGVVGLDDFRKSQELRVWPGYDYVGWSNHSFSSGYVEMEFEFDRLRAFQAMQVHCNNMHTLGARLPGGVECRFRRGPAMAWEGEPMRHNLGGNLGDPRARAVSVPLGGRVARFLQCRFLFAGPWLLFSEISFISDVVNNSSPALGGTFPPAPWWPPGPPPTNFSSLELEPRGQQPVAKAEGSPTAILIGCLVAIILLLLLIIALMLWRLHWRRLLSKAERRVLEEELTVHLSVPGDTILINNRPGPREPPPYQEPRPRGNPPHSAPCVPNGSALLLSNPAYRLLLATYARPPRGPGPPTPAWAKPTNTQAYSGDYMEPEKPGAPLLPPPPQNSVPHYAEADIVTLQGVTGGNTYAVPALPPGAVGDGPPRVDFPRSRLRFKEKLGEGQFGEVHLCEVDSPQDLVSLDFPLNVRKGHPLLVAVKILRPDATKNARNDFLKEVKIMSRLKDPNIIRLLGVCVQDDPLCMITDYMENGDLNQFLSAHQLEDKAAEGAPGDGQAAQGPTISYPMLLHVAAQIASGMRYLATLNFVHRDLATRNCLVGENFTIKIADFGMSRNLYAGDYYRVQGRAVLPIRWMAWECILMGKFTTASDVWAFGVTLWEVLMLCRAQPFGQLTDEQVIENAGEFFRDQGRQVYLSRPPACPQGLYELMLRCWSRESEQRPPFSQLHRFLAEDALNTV
Assay: RBC radiometric HotSpot kinase assay, DDR1
Details: DDR1 over DDR2
Property: SI: Selectivity index (IC50 DDR2/IC50 DDR1)

Task item: Consider the compound shown here: `O=C(Nc1ccc(F)c(Cl)c1)Nc1ccc2oc(=O)ccc2c1` What is its recorded SI: Selectivity index (IC50 DDR2/IC50 DDR1)?
Reply: >6.0

Task item: Check `O=C(Nc1ccc(Cl)c(C(F)(F)F)c1)Nc1ccc2oc(=O)ccc2c1` too.
Reply: >3.4

Task item: Cool, now `O=C(Nc1cc(Cl)cc(Cl)c1)Nc1ccc2oc(=O)ccc2c1`
Reply: >4.0

* * *

Form field: inhibition at 10 µM (one value per entry).
Target: DDR2 (Homo sapiens, UniProt Q16832)
Sequence (Q16832 22-855): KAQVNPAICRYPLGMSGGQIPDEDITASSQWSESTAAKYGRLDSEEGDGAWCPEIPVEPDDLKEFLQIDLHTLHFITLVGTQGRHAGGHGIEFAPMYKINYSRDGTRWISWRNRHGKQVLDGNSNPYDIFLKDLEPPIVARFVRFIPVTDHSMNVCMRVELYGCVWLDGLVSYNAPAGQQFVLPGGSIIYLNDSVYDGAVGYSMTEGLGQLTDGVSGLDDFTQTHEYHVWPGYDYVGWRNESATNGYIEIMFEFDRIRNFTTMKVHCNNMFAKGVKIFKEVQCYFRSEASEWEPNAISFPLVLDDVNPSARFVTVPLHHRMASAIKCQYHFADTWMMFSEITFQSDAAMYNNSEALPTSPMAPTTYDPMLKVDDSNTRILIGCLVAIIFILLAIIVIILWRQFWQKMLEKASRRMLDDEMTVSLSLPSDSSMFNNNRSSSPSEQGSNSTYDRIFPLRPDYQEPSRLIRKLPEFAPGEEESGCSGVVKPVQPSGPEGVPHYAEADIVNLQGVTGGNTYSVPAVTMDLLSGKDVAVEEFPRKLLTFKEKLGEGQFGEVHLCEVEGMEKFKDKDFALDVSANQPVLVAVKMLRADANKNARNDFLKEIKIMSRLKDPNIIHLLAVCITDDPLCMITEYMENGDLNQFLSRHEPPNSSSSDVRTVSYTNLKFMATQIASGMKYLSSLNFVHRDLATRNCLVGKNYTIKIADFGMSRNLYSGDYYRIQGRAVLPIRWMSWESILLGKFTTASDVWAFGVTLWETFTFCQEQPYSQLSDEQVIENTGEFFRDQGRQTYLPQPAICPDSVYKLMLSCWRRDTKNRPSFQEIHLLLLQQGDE
Experiment: RBC radiometric HotSpot kinase assay, DDR2
Details: read-out: % Inhibition at 10 μM (SEM) DDR2
Please give a number only; it is taken to be in %.

Compound: O=C(Nc1ccc2oc(=O)ccc2c1)Nc1ccc(F)cc1F [Compound 3m]
inhibition at 10 µM [%]: 0.78
//
Compound: O=C(Nc1cccc(OC(F)(F)F)c1)Nc1ccc2oc(=O)ccc2c1 [Compound 3q]
inhibition at 10 µM [%]: 70.1

Next compound, please.
Task item: Entry under review: O=C(Nc1cc(C(F)(F)F)cc(C(F)(F)F)c1)Nc1ccc2oc(=O)ccc2c1 [Compound 3i] . Reported inhibition at 10 µM?
Reply: 67.3

Cited source for all entries: paper PMC11054573
